Kindly state GI50 for each of the entries shown.
# Test system: SW-620
# methodDescription: NCI tumour cell line growth inhibition, 48 h
Calls of active or inactive are those of the source. Cut-off read from the data, not from the text of the source: active = GI50 up to about 1.1 µM and inactive = higher.

{"compound": "COc1cc(Nc2nc3ccccc3n3cccc23)cc(OC)c1OC", "experimentalTarget": "SW-620", "GI50": "> 100 µM (inactive)"}

Quick batch: GI50 for everything below.
1. O=C(c1ccccn1)C1(N2CCCCC2)CCCCC1
2. NC(=O)NC(=O)C1CCC(=O)N1S(=O)(=O)c1ccc(Cl)cc1 (configuration not stated)
3. CCOC(=O)NC(Nc1ccc(F)cc1F)(C(F)(F)F)C(F)(F)F
4. CSc1nc2c(nc(N)n2C2OC(CO)C(O)C(O)C2O)c(=O)n1C (configuration not stated)
5. COc1cccc2c1C(=O)OC2c1cccc2ccccc12 (configuration not stated)
6. CC1=CC2c3cccc4[nH]cc(c34)CC2N(C)C1 (configuration not stated)

# output
> 100 µM (inactive)
> 100 µM (inactive)
> 100 µM (inactive)
> 100 µM (inactive)
> 100 µM (inactive)
> 100 µM (inactive)

---

# Tested on: RPMI-8226
# methodDescription: NCI tumour cell line growth inhibition, 48 h
Activity calls are given as the source filed them. No stated cut-off is given here; in the data, active = GI50 up to about 1.1 µM and inactive = higher.
Kindly state GI50 for each of the entries shown.

Here are 8 compounds together with their reported answers.
{"compound": "COc1cc(C(=O)n2c3ccc(Br)cc3c3nc4ccccc4nc32)cc(OC)c1OC", "assayMetric": "GI50", "result": "> 100 µM (inactive)"}
{"compound": "OCCN(C1=NCCN1)/[N+](=C\\c1ccccn1)[CH-]c1ccccn1", "assayMetric": "GI50", "result": "12.1 µM (inactive)"}
{"compound": "Nc1nc2ncn(CC(O)COC(=O)c3ccccc3)c2c(=O)[nH]1 (centres undefined)", "assayMetric": "GI50", "result": "> 100 µM (inactive)"}
{"compound": "CO[C@@H]1C[C@H]2[C@@H]3CC[C@H]([C@@H](C)COC(C)=O)[C@@]3(C)CC[C@@H]2[C@@]2(C)CC[C@H]3C[C@]312", "assayMetric": "GI50", "result": "8.67 µM (inactive)"}
{"compound": "CCOC(=O)c1c(-c2ccc(Cl)cc2)c(C#N)c(=S)n(C2OC(COC(C)=O)C(OC(C)=O)C(OC(C)=O)C2OC(C)=O)c1-c1ccccc1 (centres undefined)", "assayMetric": "GI50", "result": "> 100 µM (inactive)"}
{"compound": "COc1cccc(NC(=O)C(C)(C)C)c1SSc1c(NC(=O)C(C)(C)C)cccc1OC", "assayMetric": "GI50", "result": "5.78 µM (inactive)"}
{"compound": "O=c1ccc(=O)n(-c2ccccc2)[nH]1", "assayMetric": "GI50", "result": "> 100 µM (inactive)"}
{"compound": "Cc1nnc(N)nc1/C=C\\c1cccs1", "assayMetric": "GI50", "result": "22.4 µM (inactive)"}

Consider the record given below.
// sample CC(C)OC(=O)NNc1c(Cl)cc(Cl)cc1Cl , its GI50 was 43.4 µM (inactive)

---

# System: HCC 2998
# methodDescription: NCI tumour cell line growth inhibition, 48 h
Calls of active or inactive are those of the source. No stated cut-off is given here; in the data, active = GI50 up to about 1.1 µM and inactive = higher.
assayMetric: GI50

{"compound": "Cc1nnc(N)nc1/C=C\\c1cccs1", "GI50": "14.6 µM (inactive)"}

Quick batch: GI50 for everything below.
1. Cc1c2ccccc2c(C)n2c1nc1cc(Cl)c(Cl)cc12
2. O=NN(CCCl)C(=O)NCc1ccc[n+]([O-])c1
3. O=C(/C=C/c1ccccc1)Oc1cccc(Br)c1
4. Cc1ccccc1OCC(COC(=O)Nc1ccccc1)OC(=O)Nc1ccccc1 (configuration not stated)
5. CCOC(=O)C(O)(NC(=O)c1ccc(F)cc1)C(F)(F)F (configuration not stated)
6. O=C1/C(=C/c2ccc(O)c([N+](=O)[O-])c2)CCC/C1=C\c1ccc(O)c([N+](=O)[O-])c1
7. CO/C(N)=C(C#N)/N=C/c1ccco1
8. CC(NC1=NCCO1)c1cccc([N+](=O)[O-])c1 (configuration not stated)

# output
> 10 µM (inactive)
> 100 µM (inactive)
35.7 µM (inactive)
83.8 µM (inactive)
> 100 µM (inactive)
8.69 µM (inactive)
> 100 µM (inactive)
> 100 µM (inactive)

Quick batch: GI50 for everything below.
1. COc1cc([C@@H]2C3C(=O)c4ccccc4C3[C@@H](c3cc(OC)c(OC)c(OC)c3)C23Cc2ccccc2C3=O)cc(OC)c1OC (some centres not stated)
2. O=[N+]([O-])c1ccc(Cl)cc1/C=N/C12CC3CC(CC(C3)C1)C2
3. CCn1c(-c2ccccc2)cs/c1=N\C(P(=O)(O)O)P(=O)(O)O

# output
["> 100 µM (inactive)", "> 82.4 µM (inactive)", "> 100 µM (inactive)"]

Quick batch: GI50 for everything below.
1. Cc1cc(C)c(S(=O)(=O)N(CCCN)OCCON(CCCN)S(=O)(=O)c2c(C)cc(C)cc2C)c(C)c1
2. CCOP(=O)(OCC)C(C)(CC)NC(=O)C(C(F)(F)F)C(F)(F)F (configuration not stated)
3. CCC(=O)N1NC(=O)C(CC)(CC)C1=O
4. CC1(CO)C(=O)OC12CCCCC2 (configuration not stated)
5. O=Cc1cc(O)c(O)c(O)c1-c1c(C=O)cc(O)c(O)c1O
6. COC(=O)C1=Nc2c(C)nn(-c3ccccc3)c2N=C(c2ccc(C)cc2)C1
7. CC(=O)c1ccc(Nc2c3c(nc4ccccc24)CCCC3)cc1
8. CC(C)C1CC[C@H](C)C[C@@H]1OC(=O)C(C(=O)O[C@H]1C[C@@H](C)CCC1C(C)C)C(O)[C@@H]1OC(C)(C)O[C@H]1C1COC(C)(C)O1 (some centres not stated)

# output
1: 1.9 µM (inactive); 2: > 100 µM (inactive); 3: > 100 µM (inactive); 4: > 100 µM (inactive); 5: > 100 µM (inactive); 6: > 10 µM (inactive); 7: 42.1 µM (inactive); 8: 13.8 µM (inactive)

Quick batch: GI50 for everything below.
1. CCCCCCCCCCCCCC(=O)OCC1OC(=O)C(O)C1O (configuration not stated)
2. Cn1nc2ccc([N+](=O)[O-])c(Cn3nnc4ccccc43)c2n1

# output
["> 100 µM (inactive)", "> 100 µM (inactive)"]
